Data origin: ChEMBL document CHEMBL1146289

Consider the following molecules; for each one, report its AUC.
system: Rattus norvegicus; test: AUC (0-t) in rat at 3 mg/kg, po; assay type: ADME, organism-based, Plasma; set-up: dose 3 mg/kg, route oral; settings: in vivo
All answers are understood in kg·min/L, so give the number only.

Lookup: Entry under review: `Cc1ccc(-c2cc(Br)ccc2OCc2ccc(F)cc2)n1-c1cc(C(=O)O)ccc1F` . Reported AUC?
Found: 6

Lookup: Entry under review: `CC(=O)Nc1cc(C(=O)O)cc(-n2c(C)ccc2-c2cc(Cl)ccc2OCc2ccccc2)c1` . Reported AUC?
Found: 8

Lookup: Entry under review: `CC(=O)Nc1cc(C(=O)O)cc(-n2c(C)ccc2-c2cc(F)ccc2OCc2ccc(F)cc2)c1` . Reported AUC?
Found: 60

Lookup: Entry under review: `CC(=O)Nc1cc(C(=O)O)cc(-n2c(C)ccc2-c2cc(Cl)ccc2OCc2ccc(F)cc2)c1` . Reported AUC?
Found: 20

Lookup: Entry under review: `Cc1ccc(-c2cc(Cl)ccc2OCc2ccccc2)n1-c1cc(Br)cc(C(=O)O)c1` . Reported AUC?
Found: 6
